Test system: Enterococcus faecium
test_summary: Antibacterial activity against vancomycin-resistant Enterococcus faecium VRE1
Format: functional
Recorded measurements of MIC, one per entry

Completed entries (count: 4):
{"compound": "O=C1C=C[C@]2(O[C@@H]3c4c2ccc(O)c4C(=O)[C@@H]2O[C@H]32)c2cccc(O)c21 [URNUCRATIN A]", "experimental_system": "Enterococcus faecium", "MIC": "1 µg/mL"}
{"compound": "CN[C@H](CC(C)C)C(=O)N[C@H]1C(=O)N[C@@H](CC(N)=O)C(=O)N[C@H]2C(=O)N[C@H]3C(=O)N[C@H](C(=O)N[C@H](C(=O)O)c4cc(O)cc(O)c4-c4cc3ccc4O)[C@H](O)c3ccc(c(Cl)c3)Oc3cc2cc(c3O[C@@H]2O[C@H](CO)[C@@H](O)[C@H](O)[C@H]2O[C@H]2C[C@](C)(N)[C@H](O)[C@H](C)O2)Oc2ccc(cc2Cl)[C@H]1O [VANCOMYCIN]", "experimental_system": "Enterococcus faecium", "MIC": "64 µg/mL"}
{"compound": "COc1cccc2c1C(=O)C=C[C@]21O[C@@H]2c3c1ccc(O)c3C(=O)[C@@H]1O[C@H]21 [URNUCRATIN B]", "experimental_system": "Enterococcus faecium", "MIC": "8 µg/mL"}
{"compound": "COc1cccc2c1C(=O)C=C[C@]21O[C@@H]2c3c1ccc(O)c3[C@H](O)[C@@H]1O[C@@H]12 [URNUCRATIN C]", "experimental_system": "Enterococcus faecium", "MIC": "64 µg/mL"}

Turning now to a further compound:
stdin: Recall the reported MIC of CN(C)[C@@H]1C(O)=C(C(N)=O)C(=O)[C@@]2(O)C(O)=C3C(=O)c4c(O)cccc4[C@@](C)(O)[C@H]3C[C@@H]12 [TETRACYCLINE] when tested on Enterococcus faecium.
stdout: 4 µg/mL
